system: MT4; assay: Effective dose of compound required to achieve 50% protection of MT-4 cells against the cytopathic effect of HIV; format: functional; conditions: Homo sapiens, read-out: ED50 (the source's name)
Recorded EC50 values for a group of compounds are listed next.
Outcome Measure: EC50

{"columns": ["Compound", "Target", "Measurement"],
 "data": [
  ["Cc1cn([C@H]2C[C@@H](n3ccnc3)[C@@H](CO)O2)c(=O)[nH]c1=O", "MT4", "> 500 µM"],
  ["Cc1cn([C@H]2C[C@@H](n3cncn3)[C@@H](CO)O2)c(=O)[nH]c1=O", "MT4", "> 500 µM"],
  ["Cc1cn([C@@H]2O[C@H](CO)C[C@H]2n2cncn2)c(=O)[nH]c1=O", "MT4", "> 500 µM"],
  ["Cc1cn([C@H]2C[C@@H](n3cccc3)[C@@H](CO)O2)c(=O)[nH]c1=O", "MT4", "201 µM"],
  ["Cc1cn([C@H]2C[C@@H](n3cccn3)[C@@H](CO)O2)c(=O)[nH]c1=O", "MT4", "> 500 µM"],
  ["Cc1cn([C@H]2C[C@@H](n3cnnc3)[C@@H](CO)O2)c(=O)[nH]c1=O", "MT4", "> 5 µM"],
  ["Cc1cn([C@@H]2O[C@H](CO)[C@@H](O)C2n2cncn2)c(=O)[nH]c1=O (some centres not stated)", "MT4", "> 500 µM"],
  ["Cc1cn([C@@H]2O[C@H](CO)[C@H](n3cncn3)C2O)c(=O)[nH]c1=O (some centres not stated)", "MT4", "> 500 µM"],
  ["Cc1cn([C@@H]2O[C@H](CO)[C@H](n3ccnc3)C2O)c(=O)[nH]c1=O (some centres not stated)", "MT4", "> 500 µM"],
  ["Cc1cn([C@H]2C[C@@H](NC=O)[C@@H](CO)O2)c(=O)[nH]c1=O", "MT4", "> 100 µM"],
  ["Cc1cn([C@H]2C[C@@H](n3ccnn3)[C@@H](CO)O2)c(=O)[nH]c1=O", "MT4", "> 500 µM"],
  ["Cc1cn([C@@H]2O[C@H](CO)[C@H](n3cccn3)C2O)c(=O)[nH]c1=O (some centres not stated)", "MT4", "> 100 µM"]
]}
